Target: stearoyl-CoA desaturase (SCD) (Rattus norvegicus)
Construct: The microsomes were quickly thawed and added to assay buffer so that a concentration of 0.4 mg/ml was achieved; from tissue
Test: SCD assay with rat liver microsomes ([3H]stearoyl CoA, adapted from Talamo and Bloch)
Format: biochemical
Conditions: Table 1; rat liver microsomes 0.2 mg/ml assay final, [3H]stearoyl CoA substrate, 30 min preincubation, 45 min reaction, room temperature
QUANTITY_MEASURED: IC50 (µM)

The following compounds have reported results that may help.
| COMPOUND | UNIT_DESCRIPTOR | IC50 |
| --- | --- | --- |
| O=C(COc1ccccc1)Nc1ccc2ncn(Cc3ccc(F)c(Cl)c3)c(=O)c2c1 [XL] | µM | 9.5 |
| O=C(CSc1ncccn1)Nc1ccc2ncn(Cc3ccc(Cl)c(Cl)c3)c(=O)c2c1 [LV] | µM | 5.42 |
| N#Cc1cccc(COC(=O)Nc2ccc3ncn(Cc4ccc(Cl)c(Cl)c4)c(=O)c3c2)c1 [LXXX] | µM | 0.67 |
| O=C(Nc1ccc2ncn(CCc3ccc(Cl)cc3)c(=O)c2c1)OCc1ccccc1 [XVI] | µM | 0.47 |
| O=C(COc1cccc2nsnc12)Nc1ccc2ncn(Cc3ccc(Cl)c(Cl)c3)c(=O)c2c1 [XXXV] | µM | 21 |
| O=C(COc1ccccc1)Nc1ccc2ncn(Cc3ccc(Cl)c(F)c3)c(=O)c2c1 [XXXIX] | µM | 6.1 |
| O=C(COc1ccccc1)Nc1ccc2c(=O)n(Cc3ccc(Cl)c(Cl)c3)cnc2c1 [LIII] | µM | 1.69 |

[A] CCCCCC(=O)Nc1ccc2ncn(Cc3ccc(Cl)c(Cl)c3)c(=O)c2c1 [III]
[B] O=C(Nc1ccc2ncn(Cc3ccc(Cl)cc3)c(=O)c2c1)OCc1ccccc1 [VIII]
Request: Lab note: check whether A or B shows the higher recorded IC50. Give the chosen item's label as your response.
Response: A

* * *

Molecular target: stearoyl-CoA desaturase (SCD) (Rattus norvegicus)
Construct: The microsomes were quickly thawed and added to assay buffer so that a concentration of 0.4 mg/ml was achieved; from tissue
Sequence (P07308 1-358): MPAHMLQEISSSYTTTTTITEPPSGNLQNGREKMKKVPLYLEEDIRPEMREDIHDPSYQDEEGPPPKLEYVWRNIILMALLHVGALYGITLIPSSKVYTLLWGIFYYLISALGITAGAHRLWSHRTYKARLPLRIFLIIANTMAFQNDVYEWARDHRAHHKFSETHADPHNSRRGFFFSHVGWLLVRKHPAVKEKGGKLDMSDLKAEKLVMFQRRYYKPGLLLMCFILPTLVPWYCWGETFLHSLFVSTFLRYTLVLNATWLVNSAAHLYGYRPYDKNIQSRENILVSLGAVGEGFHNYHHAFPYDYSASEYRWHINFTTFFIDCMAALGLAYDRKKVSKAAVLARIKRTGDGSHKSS
Assay: SCD assay with rat liver microsomes ([3H]stearoyl CoA, adapted from Talamo and Bloch)
Format: biochemical
Conditions: Table 2 (Example 21, procedures of Example 20); rat liver microsomes, [3H]stearoyl CoA substrate
QUANTITY_MEASURED: IC50 (nM)

| COMPOUND | TEST_VALUE |
| --- | --- |
| CC(c1ccc(Cl)c(Cl)c1)n1cnc2cc(NC(=O)CO)ccc2c1=O (centres unmarked) [compound 11] | 170 |

[A] O=C(NCc1ccc(Cl)c(Cl)c1)c1ccc2c(=O)n(Cc3ccc(Cl)c(Cl)c3)cnc2c1 [compound 91]
[B] O=C(CO)Nc1ccc2ncn(Cc3cccc(-c4ccccc4)c3)c(=O)c2c1 [compound 29]
[C] O=C(NCc1ccc(F)cc1)c1ccc2c(=O)n(Cc3ccc(Cl)cc3)cnc2c1 [compound 90]
[D] O=C(CO)Nc1ccc2ncn(CCNC(=O)c3cc(Cl)ccc3Cl)c(=O)c2c1 [compound 67]
[E] O=C(Nc1ccc2ncn(Cc3cccc(COc4cc(Cl)ccc4Cl)c3)c(=O)c2c1)OCc1ccccc1 [compound 62]
Request: Task field, ranking: reported IC50, descending order. Output spec: a listing of the labels in the requested order.
Response: D, B, A, C, E

[I] CCC(c1ccc(Cl)c(Cl)c1)n1cnc2ccc(NC(=O)OCc3ccccc3)cc2c1=O (centres unmarked) [compound 30]
[II] O=C(CO)Nc1ccc2ncn(CCOc3ccc(Cl)cc3)c(=O)c2c1 [compound 74]
[III] C[C@H](c1ccc(Cl)c(C(F)(F)F)c1)n1cnc2ccc(NC(=O)CO)cc2c1=O [compound 34]
[IV] CNC(=O)c1ccc2c(=O)n(Cc3ccc(Cl)cc3)cnc2c1 [compound 89]
[V] O=C(Nc1ccc2ncn(CCCOc3cc(Cl)ccc3Cl)c(=O)c2c1)OCc1ccccc1 [compound 44]
Request: Exam item: list the entries in increasing order of IC50. Output spec: a listing of the labels in the requested order.
Response: V, III, I, IV, II

[I] CNC(=O)c1ccc2c(=O)n(Cc3ccc(Cl)c(Cl)c3)cnc2c1 [compound 88]
[II] O=C(Nc1ccc2c(=O)n(CCCOc3cc(Cl)ccc3Cl)cnc2c1)OCc1ccccc1 [compound 50]
[III] CC(=O)Nc1ccc2ncn(Cc3ccc(F)c(F)c3)c(=O)c2c1 [compound 18]
[IV] O=C(CO)Nc1ccc2ncn(CCCOc3cc(Cl)ccc3Cl)c(=O)c2c1 [compound 43]
Request: Task field, ranking: reported IC50, descending order. Output spec: a listing of the labels in the requested order.
Response: III, I, II, IV
